molecular target: Canine_OSMR_hlgG1_Fc (canine); experiment: SPR Biacore
Sequence (chain, as listed by the source limits assumed, form in doubt): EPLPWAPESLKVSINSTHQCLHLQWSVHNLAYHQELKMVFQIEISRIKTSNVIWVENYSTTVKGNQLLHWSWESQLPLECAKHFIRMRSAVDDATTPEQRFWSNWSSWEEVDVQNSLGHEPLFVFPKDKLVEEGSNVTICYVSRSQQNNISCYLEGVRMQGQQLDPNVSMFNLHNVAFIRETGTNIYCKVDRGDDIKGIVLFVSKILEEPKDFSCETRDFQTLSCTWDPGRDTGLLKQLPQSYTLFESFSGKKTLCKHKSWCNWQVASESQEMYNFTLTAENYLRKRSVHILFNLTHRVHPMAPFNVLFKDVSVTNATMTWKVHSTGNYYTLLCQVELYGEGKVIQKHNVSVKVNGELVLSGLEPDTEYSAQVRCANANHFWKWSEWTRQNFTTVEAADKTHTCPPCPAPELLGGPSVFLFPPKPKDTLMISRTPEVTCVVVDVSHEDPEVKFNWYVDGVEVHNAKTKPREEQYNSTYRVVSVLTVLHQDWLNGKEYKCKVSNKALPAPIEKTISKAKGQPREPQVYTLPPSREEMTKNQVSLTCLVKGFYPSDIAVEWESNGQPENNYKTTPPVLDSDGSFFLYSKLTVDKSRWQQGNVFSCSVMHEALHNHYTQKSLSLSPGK
Measurement Name: Kd (nM)
Write down the numeric answer in nM and omit the unit.

Which Kd is reported for this binder? mouse: canine 09E09 chimera (antibody, V domains shown) VH: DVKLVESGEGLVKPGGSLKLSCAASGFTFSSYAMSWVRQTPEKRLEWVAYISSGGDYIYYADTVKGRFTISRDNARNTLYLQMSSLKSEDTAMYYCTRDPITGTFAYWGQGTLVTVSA VL: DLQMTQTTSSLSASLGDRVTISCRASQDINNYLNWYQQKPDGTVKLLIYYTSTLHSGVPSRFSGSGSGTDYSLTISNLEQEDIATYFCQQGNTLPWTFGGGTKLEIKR 3.83
